Where do the numbers come from? From PubChem BioAssay.

assay: growth suppression of PTEN-deleted HCT116, pilot screen, cell-based, HCT116 clonal line, CellTiter-Glo (AID 824); conditions: 60 h, at 10 µM, stronger effect = lower value;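 further: 0% = 20 µM Hyamine control and 100% = vehicle cell control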
Inconclusive results are not listed.
measuredProperty: viability (%)
Note: unit % is implicit; provide only the numeric part.

A selection of reference data follows.
INSERT INTO measurements (compound, measuredresult) VALUES
  ('COC(=O)c1ccc(C2C(C(C)=O)=C(C)Nc3ncnn32)cc1 (stereo not drawn)', 98.7),
  ('CCOC(=O)c1ccc(Nc2cc(C)nc3nc(C)nn23)cc1', 103),
  ('CC(C)(C)c1nnc2sc(SCC(=O)c3cccs3)nn2c1=O', 81.8);

Task: Entry under review: `CC1(C)CC(=O)C(C=NCc2cccnc2)=C(O)C1` . Reported viability?
Output: 98.8

Task: Quick one: `Cc1csc(=NC(=O)c2ccccc2)n1Cc1ccco1`
Output: 89.9
